Assay: yeast display, Sf9 membrane polyspecificity reagent, FACS + sequencing; frameworks hold sequencing errors

{"sequence text": "QVQLVESGGGLVQAGGSLRLSCAASGRIVKRNAMGWYRHAPGKERELVAAISYSGGSTYYADSVKGRFTISRDNAKNTVYLEMMSLKPEDTAVYYCAVDRYPTGITKYDYWGQGTQVTVSS", "polyreactivity (PSR sort gate)": "high polyreactivity"}
{"sequence text": "QVQLVESGGGLVQAGGSLRLSCAASGRTFVTNAMGWYRQAPGKERELVAAISYSGGSTTYADSVKGRFTISRDNAKNTVYLQMNSLKPEDTAVYYCNAQEDLVPKLRYYPPSDYWGQGTQVTVSS", "polyreactivity (PSR sort gate)": "low polyreactivity"}
{"sequence text": "QVQLVESGGGLVQAGGSLRLSSAASGRIFQGNSMGWYRQAPGKERELVAAITTSGGSTYYADSVKGRFTISRDNAKNTVYLQMNSLKPEDTAVYYCNVDPRKRSYDYWGQGPQVTVSS", "polyreactivity (PSR sort gate)": "high polyreactivity"}
{"sequence text": "QVQHVESGGGLVQAGGSLRLSCASSGFILEPYGMGWYRPAPGKERELVAAITSGASTYYADSVKGRFTISRDNAMNTVYLQMNILKPEDTAVYYCAVDPYSTYSEYDSWGQGTQVTVSS", "polyreactivity (PSR sort gate)": "low polyreactivity"}
{"sequence text": "QVQLVESGGGLVQAGGSLRLSCAASGFTFPYYAMGWYRQAPGKERELVAAISSGGRTNYADSVKGRFTISRDNAKNTVYLQMNSLKPEDTAVYYCATRSYVFAWEFNYWGQGTQVTVSS", "polyreactivity (PSR sort gate)": "high polyreactivity"}

----------
Test: yeast display, Sf9 membrane polyspecificity reagent, FACS + sequencing; frameworks hold sequencing errors

{"sequence text": "QVQLVESGGGLVQAGGSLRLSCAASGLIFAGYAMGWYRQAPGKERELVAAITWRGGRTYADSVKGRFTISRDNAKNTVYLQMNSLKPEDTAVYYCAVRRWGTSFVEDDYWGQGTQVTVSS", "polyreactivity (PSR sort gate)": "low polyreactivity"}
{"sequence text": "QVQLVESGGGLVQAGGSLRLSCAASGRIFRYYVMGWYRQAPGKERELVASITRVGRTNYADSVKGRFTISRDNAKNTVYLQMNSLKPEDTAFYYCAADVWWSTYRVTDDYWGQGTQVTVSS", "polyreactivity (PSR sort gate)": "high polyreactivity"}
{"sequence text": "QVQLVESGGGLVQAGGSLRLSCAASGSIFGYYAMGWYRQAPGKERELVASISGSGGTTYYADSVKGRFTISRDNAKNTVYLQMNSLKPEDTAVYYCAARRSIYGYPFVTSRRGYWGQGTQVTVSS", "polyreactivity (PSR sort gate)": "high polyreactivity"}
{"sequence text": "QVQLVESGGGLVQAGGSLRLSCAASGYIFAYYAMGWYRQEPGKERELVADIRGRGGSTYYADSVKGRFTISRDNAKNTVYLQMNSLKTEDTAVYYCARRSPNPYSIYYYWGQGTQVTVSS", "polyreactivity (PSR sort gate)": "high polyreactivity"}
{"sequence text": "QVQLVESGGGLVQAGGSLRLSCAASGSTFRSYGMGWYRQAPRKERELVAGISVSGGRTSYADSVKGRFTISRDNAKNTVYLQMNSLKPEDTAVYYCAARRSKVGYHRDYYWGQGTQVTVSS", "polyreactivity (PSR sort gate)": "high polyreactivity"}
{"sequence text": "QVQLVESGGGLVQAGGSLRLSCAASGFTFWPNAMGWYRQAPGKERELVAAINWSGGSTYYADSVKGRFTISRDNAKYTVSLQKNSLKPEDTAVYYCAADYVTNITFDGFNKYDYWGQGTQVTVSS", "polyreactivity (PSR sort gate)": "low polyreactivity"}
{"sequence text": "QVQLVDSGGGLVQAGGSLRLSCAASGFIFLNNAMGWYRQAPGKERELVAAITWSGGSTYYADSVKGRFTISRDNAKNTVYLQMNSLKPEDTAVYYCAADGWLYYGVGYWGQGTQVTVSS", "polyreactivity (PSR sort gate)": "low polyreactivity"}
{"sequence text": "QVQLVESGGGLVQAGGSLRLSCAASGFIFYSYTMGWYRQAPGKERELVATISSNGGRTYYADSVKGRFTISRDNAKNTVYLQMNSLKPEDTAVYYCATDVPHGYYWSYGDYYWGQGTQVTVSS", "polyreactivity (PSR sort gate)": "low polyreactivity"}
{"sequence text": "QVQVVESGGGLVQAGGSIRLSCAASGSILSRYAMGWYRQAPGKERELFAAITSSGGTTYYADSVKGRFTISRDTAKNTVYLQMNSLKPEDTAVYYCADHGSRYGYGDFYYWGQGTQVTVSS", "polyreactivity (PSR sort gate)": "high polyreactivity"}
{"sequence text": "QVQLVESGGGLLQAGGSLRLSCAASGSTFGYYAMGWYRQAPGKERELVAAITRSGTNTYYADSVKGRFTISRDNAKNTVYLQMNSLKPEDTAVYYCNAVSRRRSDYWGQGTQVTVSS", "polyreactivity (PSR sort gate)": "high polyreactivity"}
{"sequence text": "QVQLVESGGGLVQAGGSLRLSCAASGSIFFFNAMGWYRQAPGKERELVAAISESGTSTYYADSVKGRFTISRDNAKNTVYLQMNSLKPEDAAVYYCNVVFRYAYGVYYTPEFYYWGQGTQVTVSS", "polyreactivity (PSR sort gate)": "low polyreactivity"}
{"sequence text": "QVQLVESGGGLVQAGGSLRLSCAASGSIFVYYAMGWYRQAPGKERELVASISESDGSTSYADSVKGRFTISRDNAKNTVYLQMNSLKPEDTAVYYCAADPYFFWYSPSFDYWGQGSQVTVSS", "polyreactivity (PSR sort gate)": "low polyreactivity"}
{"sequence text": "KVQLVESGGGLVQAGGSLRLSCAASGLNFGRYAMGWYRQAPGKERELVAAISSSGVRTYYADSVKGRFTISRHNAKNTVYLQMNSLKPADTAVYYCAAAYWSSREDTVIKRYYWGQGTQVTVSS", "polyreactivity (PSR sort gate)": "high polyreactivity"}
{"sequence text": "QVQLVESGGGLGQAGGSLLLSCAASGRIFWCNAMGWTRQAPGKERELVAAIRWSGGSTYYADSVKGRFTISRDNAKNTVYLQMNSLKPEDTAVYYCAASPYWSDWTKVDSWGQGTQVTVSS", "polyreactivity (PSR sort gate)": "low polyreactivity"}
{"sequence text": "QVQLVESGGGLVQAGGSLRLSCAASGFIFVKYAMGWNRQAPGKERELVAAITNGCSTYYADSVKGRFTISRDNAKNTVYLQMNSLKPEDTAVYYCAAGHPEYDFWGQGTQVTVSS", "polyreactivity (PSR sort gate)": "low polyreactivity"}
{"sequence text": "QVQLVESGGGLVQAGGSLRLSCAASGIIFAYNTMGWYRQAPGKARELVAAITYRGGRTYYADSVKGRFRISRDNAKNTFYLQMNSLKPEDTAVYYCAAGRGVYSYGYNYWGHGTQVTVSS", "polyreactivity (PSR sort gate)": "high polyreactivity"}
{"sequence text": "KVQLVESGGGLVQAGGSLRLSCAASGNTFYVYTMGWYRQAPGKERDLVAAISSTGDRTYYADSVKGRFTISRDNAKNTVYLQMNSLKPEDTSVYYCADVRYITKEFYWGLGTQVTVSS", "polyreactivity (PSR sort gate)": "high polyreactivity"}
{"sequence text": "QVQHVESGGGLVQAGGSLRLSCAASGSTQTRNPMGWYRKAPGKERELVAAITQRGGSTYYADSVKGRFTISRDNAKNTVYLQMNSLKPEDTAVYYCAKVPSVKYRSIWVLPEYGWGQGTQVTVSS", "polyreactivity (PSR sort gate)": "low polyreactivity"}
{"sequence text": "QVQLVESGGGLVQAGGSLRLSCAASGRIFTFYAMGWYRQAPGKERELVAVITTGTSTTYADSVKGRVTISRDNAKNTVYLQMNSLKPEDTAVYYCAVESWSRVQGWLAHNYDYWGQGTQVTVSS", "polyreactivity (PSR sort gate)": "low polyreactivity"}
{"sequence text": "QVQLVESGGCLVQAGGSLRLSCAASGSTFPIYAMGWYRQAPGKERELVARITWNGGRTYYADSVKGRFTISRDNAKNTVYLQMNSLKPEDTAVYYCNARRYLRGYGYGYWGQGTQVTVSS", "polyreactivity (PSR sort gate)": "high polyreactivity"}
{"sequence text": "QVQLVESGGGLVQAGGSHRLSCAASGRIFGPYTMGWYRQAPGKERELVAAISLSGGSTYYADSVKGRFTISRDNAKNTVYLQMNRLKAEDTAVYYCNADHPFPQYEGGSWGQGTQVTVSS", "polyreactivity (PSR sort gate)": "low polyreactivity"}
